Activity values, listed per item
Experiment: Amount of free iron in Fe3+/ligand system at pH 2
Conditions: buffer
Please reply with the bare figure in % and do not write the unit itself.

Answered cases to consult:
{"columns": ["Compound string", "Assay value"],
 "data": [
  ["CC(=O)/C=C(O)/C=C/c1ccc(O[C@@H]2O[C@H](CO)[C@@H](O)[C@H](O)[C@H]2O)cc1", 30],
  ["CC(=O)/C=C(O)/C=C/c1ccc(O[C@@H]2O[C@H](CO)[C@@H](O)[C@H](O)[C@H]2O)c(O)c1", 20],
  ["O=C(O)[C@H](O)[C@@H](O)[C@H](O)[C@H](O)CO", 60]
]}

Proceeding to the next molecule to report its Activity.
[ask] # input molecule: "COc1cc(/C=C/C(O)=C/C(C)=O)ccc1O[C@@H]1O[C@H](CO)[C@@H](O)[C@H](O)[C@H]1O" ; wanted: its Activity
[reply] 40

###

Consider the following compounds and their measured pKa readings.
Test: Protonation constant, pKa by spectrophotometric method
Type: physicochemical

{"columns": ["Compound string", "Assay value"],
 "data": [
  ["CC(=O)/C=C(O)/C=C/c1ccc(O[C@@H]2O[C@H](CO)[C@@H](O)[C@H](O)[C@H]2O)cc1", 9.22]
]}

[ask] Would you kindly share the measured pKa for "COc1cc(/C=C/C(O)=C/C(C)=O)ccc1O[C@@H]1O[C@H](CO)[C@@H](O)[C@H](O)[C@H]1O" ?
[reply] 8.73

[ask] Recorded pKa of "CC(=O)/C=C(O)/C=C/c1ccc(O[C@@H]2O[C@H](CO)[C@@H](O)[C@H](O)[C@H]2O)c(O)c1" , please.
[reply] 8.03

###

Assay: Protonation constant, pKa by potentiometric method
Type: physicochemical
Assay metric: pKa
Answer with a bare number; do not write a unit.

{"columns": ["Compound string", "pKa"],
 "data": [
  ["CC(=O)/C=C(O)/C=C/c1ccc(O[C@@H]2O[C@H](CO)[C@@H](O)[C@H](O)[C@H]2O)c(O)c1", 8.03],
  ["COc1cc(/C=C/C(O)=C/C(C)=O)ccc1O[C@@H]1O[C@H](CO)[C@@H](O)[C@H](O)[C@H]1O", 8.75]
]}

[ask] For "CC(=O)/C=C(O)/C=C/c1ccc(O[C@@H]2O[C@H](CO)[C@@H](O)[C@H](O)[C@H]2O)cc1" , what is its reported pKa?
[reply] 9.26

###

System: Vero
Assay: Cytotoxicity against african green monkey Vero cells
Type: cell-based
Conditions: Chlorocebus sabaeus
Assay metric: pIC50
Just so you know, pIC50 here is -log10 of the concentration in molar units; reply with that number alone.

[ask] Which measured pIC50 belongs to "COc1cc(/C=C/C(O)=C/C(C)=O)ccc1O[C@@H]1O[C@H](CO)[C@@H](O)[C@H](O)[C@H]1O" , tested on Vero?
[reply] 3.15

###

Assay: Chemical stability in phosphate buffer at pH 7
Format: physicochemical
A collection of molecules and their measured half-life

Known half-life results, listed for orientation:
{"columns": ["Compound string", "half-life"],
 "data": [
  ["COc1cc(/C=C/C(=O)CC(=O)/C=C/c2ccc(O)c(OC)c2)ccc1O", "0.167 h"],
  ["CC(=O)/C=C(O)/C=C/c1ccc(O[C@@H]2O[C@H](CO)[C@@H](O)[C@H](O)[C@H]2O)c(O)c1", "> 100 h"],
  ["COc1cc(/C=C/C(O)=C/C(C)=O)ccc1O[C@@H]1O[C@H](CO)[C@@H](O)[C@H](O)[C@H]1O", "> 100 h"]
]}

[ask] Would you mind telling me what half-life value was observed for "CC(=O)/C=C(O)/C=C/c1ccc(O[C@@H]2O[C@H](CO)[C@@H](O)[C@H](O)[C@H]2O)cc1" ?
[reply] > 100 h

###

Test: Cytotoxicity against african green monkey Vero cells at 600 uM
Assay type: cell-based
Details: chlorocebus sabaeus, read-out: INH
Assay metric: cytotoxicity at 600 µM (%)
Answer with a number only, understood to be in %.

{"columns": ["Compound string", "Unit name", "cytotoxicity at 600 µM"],
 "data": [
  ["COc1cc(/C=C/C(O)=C/C(C)=O)ccc1O[C@@H]1O[C@H](CO)[C@@H](O)[C@H](O)[C@H]1O", "%", 40]
]}

From here, focus on the item given below.
[ask] cytotoxicity at 600 µM for "CC(=O)/C=C(O)/C=C/c1ccc(O[C@@H]2O[C@H](CO)[C@@H](O)[C@H](O)[C@H]2O)cc1" ?
[reply] 2

###

Test: Cytotoxicity against african green monkey Vero cells at 5 uM
Assay type: cell-based
Settings: chlorocebus sabaeus, read-out: INH
Assay metric: cytotoxicity at 5 µM (%)
Answer in %, number only, no unit symbol.

[ask] I would be grateful if you could share the reported cytotoxicity at 5 µM for "COc1cc(/C=C/C(=O)CC(=O)/C=C/c2ccc(O)c(OC)c2)ccc1O" .
[reply] 10

###

Assay: Octanol-water partition coefficient, log P after 4 hrs by shake flask method
Format: physicochemical
Quick reference: logP at 4 h of the listed items.
Just the number.

See these solved cases before continuing.
{"columns": ["Compound string", "Assay metric", "Assay value"],
 "data": [
  ["COc1cc(/C=C/C(O)=C/C(C)=O)ccc1O[C@@H]1O[C@H](CO)[C@@H](O)[C@H](O)[C@H]1O", "logP at 4 h", 0.13],
  ["CC(=O)/C=C(O)/C=C/c1ccc(O[C@@H]2O[C@H](CO)[C@@H](O)[C@H](O)[C@H]2O)cc1", "logP at 4 h", 0.39]
]}

[ask] Requested read-out: logP at 4 h. Entry: "CC(=O)/C=C(O)/C=C/c1ccc(O[C@@H]2O[C@H](CO)[C@@H](O)[C@H](O)[C@H]2O)c(O)c1"
[reply] 0.32

Cited source: ChEMBL document CHEMBL1154487
